Target: human GPRC5D (human, UniProt Q9NZD1 1-345)
Sequence (Q9NZD1 whole entry): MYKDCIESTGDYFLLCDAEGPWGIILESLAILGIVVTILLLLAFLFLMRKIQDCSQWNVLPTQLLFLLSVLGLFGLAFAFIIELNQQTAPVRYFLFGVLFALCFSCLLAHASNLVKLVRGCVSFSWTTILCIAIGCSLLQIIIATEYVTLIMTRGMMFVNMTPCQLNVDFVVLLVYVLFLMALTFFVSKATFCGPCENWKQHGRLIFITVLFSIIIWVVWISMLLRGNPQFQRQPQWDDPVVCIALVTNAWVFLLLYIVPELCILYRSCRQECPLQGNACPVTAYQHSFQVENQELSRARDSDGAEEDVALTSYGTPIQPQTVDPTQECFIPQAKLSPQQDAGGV
Test: cell-based or functional assay
Hi, to clarify the labels: 1 (yes) covers CAR-J2 EC50 from 0.08 µg/mL upward, 0 (no) covers anything below 0.08 µg/mL.

Input: For this binder, is measured CAR-J2 EC50 0.08 µg/mL or higher? P1AE5713 (antibody, V domains shown) VH: EVQLLESGGGLVQPGGSLRLSCAASGFTFSKYAMAWVRQAPGKGLEWVASISTGGVNTYYRDSVKARFTISRDNSKNTLYLQMNSLRAEDTAVYYCATHTGDYFDYWGQGTMVTVSS VL: DIQMTQSPSSLSASVGDRVTITCRASQSVSISGINLMNWYQQKPGQQPKLLIYHASILASGVPSRFSGSGSGTDFTLTISSLQPEDFATYYCQQTRESPLTFGQGTRLEIK
Output: 0 (no)

Input: For this binder, is measured CAR-J2 EC50 0.08 µg/mL or higher? P1AE5726 (antibody, V domains shown) VH: ELQLLESGGGLVQPGGSLRLSCAASGFTFSKYAMAWVRQAPGKGLEWVASISTGGVNTYYADSVKGRFTISRDNAKNTLYLQMNSLRAEDTAVYYCATHTGDYFDYWGQGTMVTVSS VL: DIVMTQSPDSLAVSLGERATINCRASQSVSISGINLMNWYQQKPGQQPKLLIYHASILASGVPDRFSGSGSGTDFTLTISSLQAEDVAVYYCQQTRESPLTFGQGTRLEIK
Output: 0 (no)

Input: For this binder, is measured CAR-J2 EC50 0.08 µg/mL or higher? P1AE5715 (antibody, V domains shown) VH: ELQLLESGGGLVQPGGSLRLSCAASGFTFSKYAMAWVRQAPGKGLEWVASISTGGVNTYYRDSVKARFTISRDNAKNTLYLQMNSLRAEDTAVYYCATHTGDYFDYWGQGTMVTVSS VL: DIVMTQSPDSLAVSLGERATINCKSSQSVSISGINLMNWYQQKPGQQPKLLIYHASILASGVPDRFSGSGSGTDFTLTISSLQAEDVAVYYCQQTRESPLTFGQGTRLEIK
Output: 0 (no)

Input: For this binder, is measured CAR-J2 EC50 0.08 µg/mL or higher? P1AE5718 (antibody, V domains shown) VH: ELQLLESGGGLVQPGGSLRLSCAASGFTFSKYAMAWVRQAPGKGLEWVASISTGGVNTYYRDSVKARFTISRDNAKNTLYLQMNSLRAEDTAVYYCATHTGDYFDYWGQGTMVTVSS VL: DIQMTQSPSSLSASVGDRVTITCRASQSVSISGINLMNWYQQKPGKQPKLLIYHASILASGVPSRFSGSGSGTDFTLTISSLQPEDFATYYCQQTRESPLTFGQGTRLEIK
Output: 1 (yes)
